- Experiment: Caco-2 membrane permeability, improved method as used in the following Examples (96-well, 20 to 24 h preincubation)
- Type: in vitro ADME
- Applied conditions: human, Caco-2, Caco-2
Starred links: 1 amine or outer side, 2 acyl side, 3 side chain; linkers in the order of their positions; H or OH if unused. Positions of bridges follow the written chain, without caps; N, C: chain ends. Non-standard residues stand in square brackets, D forms with d. Residues, ends and D or L forms follow the SMILES beside them. *: point of attachment. Hyp = O=C(O)[C@@H]1C[C@@H](O)CN1; NMeF = CN[C@@H](Cc1ccccc1)C(=O)O; NMeGABA = CN(CCCC(=O)[*:2])[*:1]; NMeI = CC[C@H](C)[C@H](NC)C(=O)O; hPhe = N[C@@H](CCc1ccccc1)C(=O)O; NMeL = CN[C@@H](CC(C)C)C(=O)O; NMeNva = CCC[C@H](NC)C(=O)O; NMeA = CN[C@@H](C)C(=O)O; Piperidide = C1CCN(*)CC1; CH2CMe2OH = CC(C)(O)C*; NPrGly = CCCNCC(=O)O; Ethyl(2-OH) = OCC*; Sar = CNCC(=O)O; tBu = CC(C)(C)*; Propyl = CCC*
Class YES: Papp A→B at 180 min at least 20 nm/s. Class NO: Papp A→B at 180 min below 20 nm/s.

Illustrative cases are given below, each with its answer.
INSERT INTO measurements (molecule, label_value) VALUES
  ('CC[C@H](C)[C@H]1C(=O)N[C@@H](COCCO)C(=O)N(C)CC(=O)N(C)[C@@H](CC(C)C)C(=O)N[C@H](C(=O)N2CCCCC2)CC(=O)N(C)[C@@H](C)C(=O)N[C@@H](CC(C)C)C(=O)N(C)[C@@H](CC(C)C)C(=O)N(C)[C@@H](Cc2ccccc2)C(=O)N[C@@H](CC(C)C)C(=O)N(C)[C@@H](Cc2ccccc2)C(=O)N1C [pd499] ([NMeA]L[NMeL][NMeF]L[NMeF][NMeI]S(Ethyl(2-OH))[Sar][NMeL]D-Piperidide; lactam N-11)', 'YES'),
  ('CCCN1CC(=O)N(C)[C@@H](CC(C)C)C(=O)N[C@@H](COCC(C)(C)O)C(=O)N(C)[C@@H](Cc2ccccc2)C(=O)N(C)[C@@H](CC(C)C)C(=O)N[C@H](C(=O)N2CCCCC2)CC(=O)N[C@H](C(C)C)C(=O)N(C)[C@@H](Cc2ccccc2)C(=O)N[C@@H](CC(C)C)C(=O)N(C)[C@@H](CC(C)C)C(=O)N[C@@H]([C@@H](C)O)C1=O [pd432] ([dV][NMeF]L[NMeL]T[NPrGly][NMeL]S(CH2CMe2OH)[NMeF][NMeL]D-Piperidide; lactam N-11)', 'NO'),
  ('CCC[C@H]1C(=O)N[C@@H](COC(C)(C)C)C(=O)N(C)[C@@H](CC(C)C)C(=O)N(C)[C@@H](CC(C)C)C(=O)N[C@@H](CC(C)C)C(=O)N[C@@H]([C@@H](C)O)C(=O)N2C[C@H](OCC)C[C@H]2C(=O)N[C@@H](Cc2ccccc2)C(=O)N(C)[C@@H](CC(C)C)C(=O)N[C@H](C(=O)N2CCCCC2)CC(=O)N[C@H](C(C)C)C(=O)N1C [pd380] ([dV][NMeNva]S(tBu)[NMeL][NMeL]LT[Hyp](Et)F[NMeL]D-Piperidide; lactam N-11)', 'YES'),
  ('CC(C)C[C@H]1C(=O)N[C@H](C(=O)N2CCCCC2)CC(=O)N(C)CCCC(=O)N(C)[C@@H](CC(C)C)C(=O)N[C@@H](CCc2ccccc2)C(=O)N(C)[C@@H](CC(C)C)C(=O)N(C)[C@@H](Cc2ccccc2)C(=O)N[C@@H](COC(C)(C)C)C(=O)N(C)[C@@H](CC(C)C)C(=O)N[C@@H]([C@@H](C)O)C(=O)N(C)CC(=O)N1C [pd317] ([NMeGABA][NMeL][hPhe][NMeL][NMeF]S(tBu)[NMeL]T[Sar][NMeL]D-Piperidide; lactam N-11)', 'NO');

Then there is this molecule:
# input In plain terms: is recorded Papp A→B at 180 min at least 20 nm/s for CCCOC[C@@H]1NC(=O)[C@H](CC(C)C)N(C)C(=O)[C@H](C(C)C)NC(=O)[C@H](Cc2ccccc2)N(C)C(=O)[C@@H](C(C)C)NC(=O)C[C@@H](C(=O)N2CCCCC2)NC(=O)[C@H](C)N(C)C(=O)[C@H](Cc2ccccc2)N(C)C(=O)[C@H](COC(C)(C)C)NC(=O)[C@H](CC(C)C)N(C)C(=O)CN(C)C1=O [pd326] ([dV][NMeF]V[NMeL]S(Propyl)[Sar][NMeL]S(tBu)[NMeF][NMeA]D-Piperidide; lactam N-11) ?
# output YES
